# assay method text: Half life in dog at 1 mg/kg, iv and 2 mg/kg, po
# Format: ADME, organism-based, Canis lupus familiaris
# test context: in vivo
recorded metric: half-life (h)
API: value field is a number in h; no unit string.

Quick note, half-life for C[C@@H]1c2nnc(C(F)(F)F)n2CCN1C(=O)C[C@H](N)Cc1cc(F)c(F)cc1F.Cl landed at 8.8

----------
pIC50, Dipeptidyl peptidase 9 (Homo sapiens, UniProt Q86TI2), per-entry values.
Conceptually, pIC50 converts a concentration in mol/L into minus its log10.

compound	pIC50
N[C@@H](CC(=O)N1CCn2c(nnc2C(F)(F)F)C1CC(F)(F)F)Cc1cc(F)c(F)cc1F (stereo in doubt; 39b)	4.59

Turning now to a further compound:
Observed pIC50 on Dipeptidyl peptidase 9 (Homo sapiens, UniProt Q86TI2), entry Cl.N[C@@H](CC(=O)N1CCn2c(nnc2C(F)(F)F)C1C(O)c1ccc(F)cc1)Cc1cc(F)c(F)cc1F (stereo in doubt; 47b) , equals 4.05

----------
# assay method text: Cmax in rat at 2 mg/kg, po
# Assay type: ADME, organism-based
# Parameters: dose 2 mg/kg, route oral
# test context: in vivo
Labelling: Cmax reported below 20 nM becomes Satisfied; at or above becomes Not satisfied.

Consider the following illustrative entries.
compound	class
Cl.N[C@@H](CC(=O)N1CCn2c(nnc2C(F)(F)F)C1Cc1cc(C(F)(F)F)cc(C(F)(F)F)c1)Cc1cc(F)c(F)cc1F (stereo in doubt; 48b)	Not satisfied
C[C@@H]1c2nnc(C(F)(F)F)n2CCN1C(=O)C[C@H](N)Cc1cc(F)c(F)cc1F.Cl	Not satisfied
Cl.N[C@@H](CC(=O)N1CCn2c(nnc2C(F)(F)F)C1Cc1ccccc1F)Cc1cc(F)c(F)cc1F (stereo in doubt; 45b)	Not satisfied
C[C@@H]1c2nnc(C(F)(F)F)n2[C@H](C)CN1C(=O)C[C@H](N)Cc1cc(F)c(F)cc1F.Cl	Not satisfied
Cl.N[C@@H](CC(=O)N1CCn2c(nnc2C(F)(F)F)C1Cc1ccccn1)Cc1cc(F)c(F)cc1F (stereo in doubt; 49b)	Satisfied
CN(C)C(=O)CC1c2nnc(C(F)(F)F)n2CCN1C(=O)C[C@H](N)Cc1cc(F)c(F)cc1F.Cl (stereo in doubt; 41b)	Satisfied

Please examine the following record next.
Query: Regarding Cl.N[C@@H](CC(=O)N1CCn2c(nnc2C(F)(F)F)[C@H]1Cc1ccc(F)cc1)Cc1cc(F)c(F)cc1F (mixture of isomers) , kindly confirm whether its Cmax is beneath 20 nM.
Reply: Not satisfied

----------
# assay method text: Cmax in dog at 2 mg/kg, po
# Format: ADME, organism-based, Canis lupus familiaris
# Parameters: dose 2 mg/kg, route oral
# test context: in vivo
recorded metric: Cmax (nM)
API: value field is a number in nM; no unit string.

Quick note, Cmax for C[C@@H]1c2nnc(C(F)(F)F)n2CCN1C(=O)C[C@H](N)Cc1cc(F)c(F)cc1F.Cl landed at 756

----------
# assay method text: Half life in rat at 1 mg/kg, iv and 2 mg/kg, po
# Type: ADME, organism-based
# test context: in vivo
Labelling: half-life reported below 2 h becomes Condition met; at or above becomes Condition not met.

Consider the following illustrative entries.
compound	class
C[C@@H]1c2nnc(C(F)(F)F)n2CCN1C(=O)C[C@H](N)Cc1cc(F)c(F)cc1F.Cl	Condition not met
Cl.N[C@@H](CC(=O)N1CCn2c(nnc2C(F)(F)F)C1)Cc1cc(F)c(F)cc1F	Condition met
C[C@@H]1CN(C(=O)C[C@H](N)Cc2cc(F)c(F)cc2F)Cc2ccc(C(F)(F)F)n21.Cl	Condition met
Cl.N[C@@H](CC(=O)N1CCn2c(nnc2C(F)(F)F)C1Cc1ccccc1F)Cc1cc(F)c(F)cc1F (stereo in doubt; 45b)	Condition met
C[C@@H]1c2nnc(C(F)(F)F)n2[C@H](C)CN1C(=O)C[C@H](N)Cc1cc(F)c(F)cc1F.Cl	Condition not met

Query: Regarding Cl.N[C@@H](CC(=O)N1CCn2c(nnc2C(F)(F)F)C1Cc1cc(C(F)(F)F)cc(C(F)(F)F)c1)Cc1cc(F)c(F)cc1F (stereo in doubt; 48b) , kindly confirm whether its half-life is beneath 2 h.
Reply: Condition not met

Query: Regarding Cl.N[C@@H](CC(=O)N1CCn2c(nnc2C(F)(F)F)C1Cc1ccccn1)Cc1cc(F)c(F)cc1F (stereo in doubt; 49b) , kindly confirm whether its half-life is beneath 2 h.
Reply: Condition met

----------
# assay method text: Cmax in monkey at 2 mg/kg, po
# Format: ADME, organism-based, Macaca mulatta
# Design: dose 2 mg/kg, route oral
# test context: rhesus monkey, in vivo
recorded metric: Cmax (nM)
API: value field is a number in nM; no unit string.

Quick note, Cmax for C[C@@H]1c2nnc(C(F)(F)F)n2CCN1C(=O)C[C@H](N)Cc1cc(F)c(F)cc1F.Cl landed at 410

----------
IC50, Dipeptidyl peptidase 8 (Homo sapiens, UniProt Q6V1X1), per-entry values.
API: value field is a number in µM; no unit string.

compound	IC50 [µM]
C[C@@H]1c2nnc(C(F)(F)F)n2[C@H](C)CN1C(=O)C[C@H](N)Cc1cc(F)c(F)cc1F.Cl	70

Quick note, IC50 for CN(C)C(=O)CC1c2nnc(C(F)(F)F)n2CCN1C(=O)C[C@H](N)Cc1cc(F)c(F)cc1F.Cl (stereo in doubt; 41b) landed at 30

----------
# assay method text: Oral bioavailability in Zucker fa/fa rat
# Assay type: ADME, organism-based
# test context: in vivo
recorded metric: bioavailability (%)
API: value field is a number in %; no unit string.

Quick note, bioavailability for Cl.N[C@@H](CC(=O)N1CCn2c(nnc2C(F)(F)F)[C@H]1Cc1ccc(F)cc1)Cc1cc(F)c(F)cc1F (mixture of isomers) landed at 100

----------
# assay method text: Plasma clearance in monkey at 1 mg/kg, iv and 2 mg/kg, po
# Type: ADME, organism-based, Macaca mulatta
# test context: rhesus monkey
recorded metric: clearance (mL/min/kg)
API: value field is a number in mL/min/kg; no unit string.

Quick note, clearance for C[C@@H]1c2nnc(C(F)(F)F)n2CCN1C(=O)C[C@H](N)Cc1cc(F)c(F)cc1F.Cl landed at 29

----------
# test target: Dipeptidyl peptidase 8 (Homo sapiens, UniProt Q6V1X1)
# Sequence (Q6V1X1 whole entry): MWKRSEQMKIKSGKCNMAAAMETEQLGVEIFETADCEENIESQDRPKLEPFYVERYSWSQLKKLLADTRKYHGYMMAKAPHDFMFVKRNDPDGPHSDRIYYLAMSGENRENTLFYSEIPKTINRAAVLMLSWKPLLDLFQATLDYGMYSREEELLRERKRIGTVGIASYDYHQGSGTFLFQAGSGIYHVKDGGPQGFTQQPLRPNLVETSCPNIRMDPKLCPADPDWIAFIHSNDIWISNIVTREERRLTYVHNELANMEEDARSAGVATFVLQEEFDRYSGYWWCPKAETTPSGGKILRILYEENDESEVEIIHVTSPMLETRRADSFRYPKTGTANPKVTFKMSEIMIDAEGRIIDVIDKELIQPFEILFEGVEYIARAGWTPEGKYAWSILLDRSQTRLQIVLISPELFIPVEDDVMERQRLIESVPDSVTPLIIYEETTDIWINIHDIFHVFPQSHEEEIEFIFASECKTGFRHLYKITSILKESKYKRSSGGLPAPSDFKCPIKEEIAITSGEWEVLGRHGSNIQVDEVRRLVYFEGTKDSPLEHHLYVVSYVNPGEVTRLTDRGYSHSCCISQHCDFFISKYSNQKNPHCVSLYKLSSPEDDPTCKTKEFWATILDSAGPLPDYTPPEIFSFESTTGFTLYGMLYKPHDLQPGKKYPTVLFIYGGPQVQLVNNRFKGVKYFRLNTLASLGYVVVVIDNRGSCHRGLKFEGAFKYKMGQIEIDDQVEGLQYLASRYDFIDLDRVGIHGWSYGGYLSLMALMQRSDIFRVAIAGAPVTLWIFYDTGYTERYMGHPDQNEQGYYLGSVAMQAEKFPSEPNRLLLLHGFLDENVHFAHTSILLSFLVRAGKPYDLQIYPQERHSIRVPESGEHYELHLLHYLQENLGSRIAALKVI
Entries and their pIC50 values follow.
Conceptually, pIC50 converts a concentration in mol/L into minus its log10.

The examples below pair each entry with its known result.
compound	pIC50
C=CCC1c2nnc(C(F)(F)F)n2CCN1C(=O)C[C@H](N)Cc1cc(F)c(F)cc1F (stereo in doubt; 40a)	5.52
CC1c2nnc(C(F)(F)F)n2C(C)CN1C(=O)C[C@H](N)Cc1cc(F)c(F)cc1F (stereo in doubt; 16d)	4.36
N[C@@H](CC(=O)N1CCn2c(nnc2C(F)(F)F)C1CC(F)(F)F)Cc1cc(F)c(F)cc1F (stereo in doubt; 39b)	5.80
C[C@@H]1c2nnc(C(F)(F)F)n2CCN1C(=O)C[C@H](N)Cc1cc(F)c(F)cc1F.Cl	4.77
CC1(C)CN(C(=O)C[C@H](N)Cc2cc(F)c(F)cc2F)Cc2nnc(C(F)(F)F)n21	4.18

Turning now to a further compound:
Observed pIC50 on Dipeptidyl peptidase 8 (Homo sapiens, UniProt Q6V1X1), entry N[C@@H](CC(=O)N1CCn2c(nnc2C(F)(F)F)C1Cc1ccccc1C(F)(F)F)Cc1cc(F)c(F)cc1F (stereo in doubt; 44b) , equals 5.10

----------
# test target: UniProt P27487
# Sequence (P27487 whole entry): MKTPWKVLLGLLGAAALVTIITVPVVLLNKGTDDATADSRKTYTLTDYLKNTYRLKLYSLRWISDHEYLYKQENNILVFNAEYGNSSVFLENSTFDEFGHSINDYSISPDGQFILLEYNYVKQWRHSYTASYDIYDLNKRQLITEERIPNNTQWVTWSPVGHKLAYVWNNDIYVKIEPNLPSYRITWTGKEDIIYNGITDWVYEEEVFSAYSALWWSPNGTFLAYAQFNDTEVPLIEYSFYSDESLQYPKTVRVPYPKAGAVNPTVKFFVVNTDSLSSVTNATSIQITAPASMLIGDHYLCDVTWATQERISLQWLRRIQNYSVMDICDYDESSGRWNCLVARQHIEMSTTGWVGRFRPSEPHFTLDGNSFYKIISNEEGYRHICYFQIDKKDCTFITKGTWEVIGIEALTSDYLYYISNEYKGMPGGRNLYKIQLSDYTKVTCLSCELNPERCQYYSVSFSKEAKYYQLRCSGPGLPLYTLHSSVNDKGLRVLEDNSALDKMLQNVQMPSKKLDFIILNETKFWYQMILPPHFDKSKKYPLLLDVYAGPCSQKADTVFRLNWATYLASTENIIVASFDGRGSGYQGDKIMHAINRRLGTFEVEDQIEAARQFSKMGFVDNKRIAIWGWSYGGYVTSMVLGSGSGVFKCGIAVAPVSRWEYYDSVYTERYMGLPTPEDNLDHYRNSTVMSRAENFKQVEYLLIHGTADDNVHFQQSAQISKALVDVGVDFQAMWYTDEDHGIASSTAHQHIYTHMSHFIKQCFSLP
Labelling: IC50 reported below 10 nM becomes TRUE; at or above becomes FALSE.

Consider the following illustrative entries.
molecule	class
CC1c2nnc(C(F)(F)F)n2C(C)CN1C(=O)C[C@H](N)Cc1cc(F)c(F)cc1F (stereo in doubt; 16a)	FALSE
CN(C)C(=O)CC1c2nnc(C(F)(F)F)n2CCN1C(=O)C[C@H](N)Cc1cc(F)c(F)cc1F.Cl (stereo in doubt; 41b)	TRUE

Query: Regarding Cl.N[C@@H](CC(=O)N1CCn2c(nnc2C(F)(F)F)C1Cc1cc(C(F)(F)F)cc(C(F)(F)F)c1)Cc1cc(F)c(F)cc1F (stereo in doubt; 48b) , kindly confirm whether its IC50 is beneath 10 nM.
Reply: TRUE

Query: Regarding COc1ccc(CC2c3nnc(C(F)(F)F)n3CCN2C(=O)C[C@H](N)Cc2cc(F)c(F)cc2F)cc1 (stereo in doubt; 43b) , kindly confirm whether its IC50 is beneath 10 nM.
Reply: TRUE

Query: Regarding C[C@@H]1c2nnc(C(F)(F)F)n2[C@H](C)CN1C(=O)C[C@H](N)Cc1cc(F)c(F)cc1F.Cl , kindly confirm whether its IC50 is beneath 10 nM.
Reply: FALSE

----------
pIC50, Dipeptidyl peptidase 2 (Homo sapiens, UniProt Q9UHL4), per-entry values.
pIC50: −log10 of the molar value.

The examples below pair each entry with its known result.
molecule	test target	pIC50
CN(C)C(=O)CC1c2nnc(C(F)(F)F)n2CCN1C(=O)C[C@H](N)Cc1cc(F)c(F)cc1F.Cl (stereo in doubt; 41b)	Dipeptidyl peptidase 2 (Homo sapiens, UniProt Q9UHL4)	< 4.00
C[C@H]1CN(C(=O)C[C@H](N)Cc2cc(F)c(F)cc2F)Cc2ccc(C(F)(F)F)n21	Dipeptidyl peptidase 2 (Homo sapiens, UniProt Q9UHL4)	< 4.00
CC1(C)CN(C(=O)C[C@H](N)Cc2cc(F)c(F)cc2F)Cc2nnc(C(F)(F)F)n21	Dipeptidyl peptidase 2 (Homo sapiens, UniProt Q9UHL4)	4.11
C[C@H]1c2nnc(C(F)(F)F)n2[C@@H](C)CN1C(=O)C[C@H](N)Cc1cc(F)c(F)cc1F	Dipeptidyl peptidase 2 (Homo sapiens, UniProt Q9UHL4)	< 4.00
C=CCC1c2nnc(C(F)(F)F)n2CCN1C(=O)C[C@H](N)Cc1cc(F)c(F)cc1F (stereo in doubt; 40b)	Dipeptidyl peptidase 2 (Homo sapiens, UniProt Q9UHL4)	4.21
N[C@@H](CC(=O)N1CCn2c(nnc2C(F)(F)F)C1Cc1ccccn1)Cc1cc(F)c(F)cc1F (stereo in doubt; 49a)	Dipeptidyl peptidase 2 (Homo sapiens, UniProt Q9UHL4)	< 4.00
C[C@@H]1c2nnc(C(F)(F)F)n2[C@H](C)CN1C(=O)C[C@H](N)Cc1cc(F)c(F)cc1F.Cl	Dipeptidyl peptidase 2 (Homo sapiens, UniProt Q9UHL4)	< 4.00
N[C@@H](CC(=O)N1CCn2c(nnc2C(F)(F)F)C1Cc1cc(C(F)(F)F)cc(C(F)(F)F)c1)Cc1cc(F)c(F)cc1F (stereo in doubt; 48a)	Dipeptidyl peptidase 2 (Homo sapiens, UniProt Q9UHL4)	< 4.00

Quick note, pIC50 for Cl.N[C@@H](CC(=O)N1CCn2c(nnc2C(F)(F)F)C1Cc1ccccn1)Cc1cc(F)c(F)cc1F (stereo in doubt; 49b) landed at < 4.00

Quick note, pIC50 for COc1ccc(CC2c3nnc(C(F)(F)F)n3CCN2C(=O)C[C@H](N)Cc2cc(F)c(F)cc2F)cc1 (stereo in doubt; 43a) landed at < 4.00

Quick note, pIC50 for CC1(C)c2nnc(C(F)(F)F)n2CCN1C(=O)C[C@H](N)Cc1cc(F)c(F)cc1F landed at 4.64

Quick note, pIC50 for C[C@H]1c2nnc(C(F)(F)F)n2CCN1C(=O)C[C@H](N)Cc1cc(F)c(F)cc1F landed at < 4.00

Quick note, pIC50 for CCC1c2nnc(C(F)(F)F)n2CCN1C(=O)C[C@H](N)Cc1cc(F)c(F)cc1F (stereo in doubt; 38a) landed at < 4.00
